- System: MDA-MB-435 melanoma
- assay explanation: NCI-60 one-dose screen, 48 h (100 = growth as untreated, 0 = no growth, -100 = all killed)
- test conditions: 10 µM unless noted
About 83,000 compounds went through this panel and 20% of them were active in at least one assay; those are over-represented in the sample as a whole.
Our labelling divides records by growth into ranges: low (below 20%), medium (20% to below 90%), high (90% or more)

compound: COc1ccc(/C=C/C(=O)NCCO)cc1
class: high

compound: Nc1c(C(=O)Nc2c(Cl)cccc2Cl)sc2nc3c(cc12)CCCC3
class: low

compound: NS(=O)(=O)c1ccc(CCNC(=O)/C=C/c2ccc(Cl)cc2)cc1
class: high

compound: COC(=O)CNc1nc(N(C)O)nc(N(C)O)n1
class: medium

compound: Cn1cc(-c2csc(-c3cn(CCN)c4ccccc34)n2)c2cccnc21
class: low

compound: COc1ccc(-c2cc(=O)oc3ccc(Cl)cc23)cc1F
class: low

compound: C/C(=N/NC(N)=S)C(=O)O
class: medium

compound: CCC(CC)C(=O)OC(C)COc1ccc(C(C)(C)C)cc1 (stereo unspecified)
class: high

For the record `CCN1CCN(c2nc(C)cc(N(CCCNc3ccnc4cc(Cl)ccc34)Cc3ccco3)n2)CC1` , report the class its growth corresponds to. low

# iterate: `CCN1CCN(C(=O)[C@]23CCC(C)(C)C[C@@H]2C2=CC[C@@H]4[C@@]5(C)C/C(=C/c6cccnc6)C(=O)C(C)(C)[C@@H]5CC[C@@]4(C)[C@]2(C)CC3)CC1` medium

Follow-up entry: `Oc1ccccc1/C=N\NC(=S)Nc1ccc(F)cc1` medium

====

- Tested on: SNB-75 CNS
- assay explanation: NCI-60 one-dose screen, 48 h
- test conditions: 10 µM unless noted
Compounds without any hit were thinned out: in the full panel of roughly 83,000, 20% have a hit. Activity calls are given as the source filed them. The calls were made as follows: active = growth percent below 10; inactive = the rest.
Select the correct class. Options are active, inactive and nothing else.

smiles representation: NCCn1cc(-c2nc(-c3c[nH]c4ncccc34)cs2)c2cc(Br)ccc21
class: inactive

Dear colleague, could you share the recorded outcome for `O=[N+]([O-])c1ccc(N/N=C(\C(=N/Nc2ccc([N+](=O)[O-])cc2[N+](=O)[O-])c2ccccc2)c2ccccc2)c([N+](=O)[O-])c1` when you have a moment? inactive

And `Cc1nn2c(-c3nc4cc(Cl)c(Cl)cc4[nH]3)c(-c3ccc(F)cc3)nc2s1` ? active

Follow-up item: `O=C1c2cc3c(cc2-c2c1c1ccc(Cl)cc1c(=O)n2C[C@H](O)[C@@H](O)[C@H](O)CO)OCO3` active

What do you have for `CC(=O)O[C@@H]1CCN2C(=O)N(C)c3ccccc3[C@@H]2C1` ? inactive

====

- System: M14 melanoma
- assay explanation: NCI-60 one-dose screen, 48 h
- test conditions: 10 µM unless noted
This is part of a sample that, as a whole, favours compounds with a hit. Of some 83,000 tested, about 20% had one in any assay. Activity calls are given as the source filed them. How the source made its calls: active means growth percent below 10; inactive means the rest.
Bench note: report the call from YES = active, NO = inactive

Examples from the recorded data:
compound: CCCCCCCN(CCCCCCC)C(=N)c1ccnc2ccccc12
class: YES

compound: NCCNc1nc(-c2ccccc2)nc2nc(-c3ccccc3)oc12
class: NO

compound: COc1ccc(C2CC(=O)c3c(nc4ccc(Cl)cc4c3N)C2)cc1 (stereo not drawn)
class: NO

Call for entry `CC/C(=N/NC(N)=O)c1ccccc1` : NO

Further, for `O=C(N/N=C/c1ccccc1SSc1ccccc1/C=N/NC(=O)c1ccccc1)c1ccccc1` ? NO

And `COc1cc(-c2cc3ncccc3c3nc(OCCN(C)C)c4cccnc4c23)cc(OC)c1OC` ? NO

Try this compound too: `Cc1cc(Nc2ccc(F)cc2)nc(N2CCN(c3ccnc4cc(Cl)ccc34)CC2)n1` NO

Now give it for `COc1c(N)c2c(c([N+](=O)[O-])c1OC)C(=O)OC2` too. NO

What do you have for `COC(=O)[C@]12CC[C@@H](C)[C@H](C)[C@@H]1C1=CC[C@@H]3[C@@]4(C)C[C@@H](OC(C)=O)[C@H](O)[C@@](C)(COC(C)=O)[C@@H]4[C@H](O)C[C@@]3(C)[C@]1(C)CC2` ? YES

And what about the compound `COc1ccc(C2=NN(c3nc(-c4ccc(OC)cc4)c(C#N)c(=O)n3C)C(=O)CC2)cc1` ? NO

Try the compound `CC(=O)O[C@H]1CC[C@]2(C)[C@H]3CC=C4[C@@H]5[C@H](C)[C@@H](C)CC[C@]5(C(=O)NCCNCCNCCN)CC[C@@]4(C)[C@]3(C)CC[C@H]2C1(C)C` NO

Moving on to the next compound: `COC(=O)[C@]12CC[C@@H](C)[C@H](C)[C@@H]1C1=CC[C@@H]3[C@@]4(C)C(c5ncon5)=C[C@@](C)(CO)C4=CC[C@@]3(C)[C@]1(C)CC2` YES
